From: the kinase profiling compilation of Christmann-Franck et al. (2016)

Molecular target: MAP2K1 (human) (UniProt Q02750)
Sequence (Q02750 whole entry, looked up): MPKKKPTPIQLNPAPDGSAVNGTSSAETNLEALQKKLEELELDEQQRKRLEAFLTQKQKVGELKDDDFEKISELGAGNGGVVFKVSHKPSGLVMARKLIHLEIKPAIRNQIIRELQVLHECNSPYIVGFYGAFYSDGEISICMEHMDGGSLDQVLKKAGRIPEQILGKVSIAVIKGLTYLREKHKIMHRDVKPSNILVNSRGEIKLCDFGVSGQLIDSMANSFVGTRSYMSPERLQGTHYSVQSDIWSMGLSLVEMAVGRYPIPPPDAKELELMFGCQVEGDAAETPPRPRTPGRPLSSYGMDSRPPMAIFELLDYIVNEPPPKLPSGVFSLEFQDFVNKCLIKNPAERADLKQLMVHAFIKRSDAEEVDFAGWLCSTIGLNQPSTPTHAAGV
Experiment: radiometric filter-binding kinase assay, Kinase HotSpot
Settings: compound 0.5 µM; ATP 10 µM
Reported Endpoint: residual activity (%)
Could you give me the number in %? Just the number is fine.

Below, 9 molecules whose answers are already recorded.
1. Nc1nc(Nc2ccc(S(N)(=O)=O)cc2)nn1C(=O)c1c(F)cccc1F    93.9
2. CC(C)[C@H](CO)Nc1nc(Nc2cccc(Cl)c2)c2ncn(C(C)C)c2n1    96
3. O=c1cc(N2CCNCC2)oc2c(-c3ccccc3)cccc12    103
4. COc1ccc(-c2cnc3c(-c4ccsc4)cnn3c2)cc1    98.2
5. Cc1cc2ncc(-c3ccccc3)nc2cc1C    98
6. CSc1nc(-c2ccc(F)cc2)c(-c2ccnc(NC(C)c3ccccc3)c2)[nH]1 (stereo not given)    93.9
7. O=C1Cc2c([nH]c3ccc([N+](=O)[O-])cc23)-c2ccccc2N1    92.6
8. CC(C)n1cnc2c(Nc3cccc(Cl)c3)nc(NCCO)nc21    92.8
9. COc1cc2nccc(Oc3ccc(NC(=S)NC(=O)c4ccccc4C)cc3)c2cc1OC    88.3

[in] Given the entry O=c1cc(-c2cccc3c2Sc2ccccc2S3)oc(N2CCOCC2)c1 , report its measured residual activity.
[out] 94.9
